Assay: Cytotoxicity determination in HepG2.2.15 cells (CCK-8 cell viability)
Type: cell-based
Conditions: human, 6 days treatment, CCK-8 assay, highest concentration 100 uM
Measurement kind: CC50 at 6 days (µM)

>>> reading("CCOC(=O)C1=C(CN2CC(F)(F)[C@H]3[C@@H]2CCN3C[C@@H](C)C(=O)O)NC(c2nccs2)=N[C@H]1c1ccc(F)cc1Cl (single isomer, unassigned) [Compound 135A]")
25.9
>>> reading("CCOC(=O)C1=C(CN2CC(F)(F)[C@H]3[C@@H]2CCN3CCCC(C)(C)C(=O)O)NC(c2nccs2)=N[C@H]1c1cccc(F)c1C (single isomer, unassigned)")
20.2
>>> reading("CCOC(=O)C1=C(CN2CC(F)(F)[C@H]3[C@@H]2CCN3[C@@H](C)CC(C)(C)C(=O)O)NC(c2nccs2)=N[C@H]1c1cccc(F)c1C (single isomer, unassigned) [Compound 105B]")
94.3

* * *

Test system: HBV
Experiment: Anti-HBV activity in HepG2.2.15 cells (HBV DNA in culture medium by qPCR)
Format: cell-based
Conditions: Hepatitis B virus, HepG2.2.15, 144 h, HepG2.2.15 cells, 6 days treatment, HBV DNA in culture medium quantified by real-time PCR; read-out: EC50
Protocol: Example 2: Anti-Viral Assay in HepG2.2.15 Cells […] The change of HBV DNA level induced by the compounds was assessed by quantitative real-time polymerase chain reaction (qPCR). Briefly, the HBV DNA in the culture medium was extracted using QIAamp 96 DNA Blood Kit according to the manual and then quantified by real-time PCR assay using the primers and probe in the table 2 below. 2) DATA Analysis EC50 and CC50 values are calculated by the GRAPTIPAD PRISM software.
Measurement kind: EC50

>>> reading("CCOC(=O)C1=C(CN2CC(F)(F)C3C(=O)N(CC(C)(C)C(=O)O)CC32)NC(c2nccs2)=N[C@H]1c1cccc(F)c1C (stereo partly shown) [Compound 5]")
"0.0227 µM"
>>> reading("CCCOC(=O)C1=C(CN2CC(F)(F)[C@H]3[C@@H]2CCN3CCC(C)(C)C(=O)O)NC(c2nccs2)=N[C@H]1c1cccc(F)c1C (single isomer, unassigned) [Compound 151]")
"0.0187 µM"
>>> reading("CCOC(=O)C1=C(CN2CC(F)(F)[C@@H]3[C@H]2CN(C(=O)[C@H]2CC2(F)F)N3CCC(C)(C)C(=O)O)NC(c2nccs2)=N[C@H]1c1cccc(F)c1C (single isomer, unassigned) [Compound 72A]")
"0.055 µM"
>>> reading("CCOC(=O)C1=C(CN2CC(F)(F)[C@H]3[C@@H]2CCN3C[C@H](C)C(=O)O)NC(c2nccs2)=N[C@H]1c1ccc(F)cc1Cl (single isomer, unassigned) [Compound 135B]")
"0.0099 µM"
>>> reading("CCOC(=O)C1=C(CN2CC(F)(F)[C@@H]3CN(C(=O)[C@@H]4C[C@@H]4C(=O)O)C[C@@H]32)NC(c2nccs2)=N[C@H]1c1cccc(F)c1C (single isomer, unassigned) [Compound 57B]")
"0.0922 µM"
>>> reading("COC(=O)C1=C(CN2CC(F)(F)[C@@H]3C(=O)N(CC(C)(C)C(=O)O)C[C@@H]32)NC(c2ncoc2C)=N[C@H]1c1ccc(F)cc1Cl (single isomer, unassigned) [Compound 41]")
"0.0938 µM"
>>> reading("CCOC(=O)C1=C(CN2CC(F)(F)[C@H]3[C@@H]2CCN3C2CC3(CC(C(=O)O)C3)C2)NC(c2nccs2)=N[C@H]1c1cccc(F)c1C (single isomer, unassigned) [Compound 113]")
"0.0022 µM"
>>> reading("CCOC(=O)C1=C(CN2CC(F)(F)[C@H]3[C@@H]2CCN3CC[C@H]2C[C@H](C(=O)O)C2)NC(c2nccs2)=N[C@H]1c1cccc(F)c1C (single isomer, unassigned) [Compound 129B]")
"0.0029 µM"
>>> reading("COC(=O)C1=C(CN2CC(F)(F)[C@@H]3CN(C(=O)C(C)(C)C(=O)O)C[C@@H]32)NC(c2nccs2)=N[C@H]1c1cccc(F)c1Cl (single isomer, unassigned) [Compound 206]")
"0.0393 µM"
>>> reading("CCOC(=O)C1=C(CN2CC(F)(F)[C@H]3[C@@H]2CCN3[C@H]2C[C@@H](CC(=O)O)C2)NC(c2nccs2)=N[C@H]1c1cccc(F)c1C (single isomer, unassigned) [Compound 123A]")
"0.008 µM"
